Each entry below carries its reported Kd.
Target: MDM2 (Homo sapiens)
Construct: GST (N); His6 (N); made in house; host or cells: E. coli BL21 (DE3) Rosetta T1R
Sequence (Q00987 1-125): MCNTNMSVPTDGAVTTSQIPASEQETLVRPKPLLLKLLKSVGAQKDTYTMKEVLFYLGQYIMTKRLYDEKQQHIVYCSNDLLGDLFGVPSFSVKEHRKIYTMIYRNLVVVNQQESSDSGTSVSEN
Test: Surface plasmon resonance (SPR) binding to MDM2
Settings: Table 2; MDM2
Positions of bridges follow the written chain, without caps; N, C: chain ends. Non-standard residues stand in square brackets, D forms with d. Residues, ends and D or L forms follow the SMILES beside them. dPhe(4-CF3) = N[C@H](Cc1ccc(C(F)(F)F)cc1)C(=O)O; dTrp(6-F) = N[C@H](Cc1c[nH]c2cc(F)ccc12)C(=O)O; R5 = C=CCCC[C@@](C)(N)C(=O)O; S5 = C=CCCC[C@](C)(N)C(=O)O

Example entries and their recorded answers appear below.
{"Compound": "CC(C)C[C@H]1NC(=O)[C@@H](CC(C)C)NC(=O)[C@@](C)(NC(=O)[C@@H](CCC(=O)O)NC(=O)[C@@H](Cc2ccc(C(F)(F)F)cc2)NC(=O)[C@@H](CC(N)=O)NC(=O)[C@@]2(C)CCC/C=C\\CCC[C@@](C)(N)C(=O)N[C@H](C)C(=O)N[C@H](Cc3c[nH]c4cc(F)ccc34)C(=O)N[C@H](Cc3ccc(O)cc3)C(=O)N2)CCC/C=C\\CCC[C@](C)(C(N)=O)NC1=O [^DPMI-δ (1-5,9-12)] (H-[R5][dA][dTrp(6-F)][dY][R5][dN][dPhe(4-CF3)][dE][S5][dL][dL][R5]-NH2; staple (Z) 1-5, 9-12)", "Readout Value": "< 1 nM"}
{"Compound": "CC(C)C[C@@H](NC(=O)[C@@H](CC(C)C)NC(=O)[C@@H](CCCCN)NC(=O)[C@@H](CCC(=O)O)NC(=O)[C@@H](Cc1ccc(C(F)(F)F)cc1)NC(=O)[C@@]1(C)CCC/C=C\\CCC[C@@](C)(NC(=O)[C@H](N)[C@H](C)O)C(=O)N[C@H](Cc2c[nH]c3cc(F)ccc23)C(=O)N[C@H](Cc2ccc(O)cc2)C(=O)N[C@H](C)C(=O)N1)C(=O)N[C@H](CCCNC(=N)N)C(N)=O [^DPMI-δ (2-6)] (H-[dT][R5][dTrp(6-F)][dY][dA][R5][dPhe(4-CF3)][dE][dK][dL][dL][dR]-NH2; staple (Z) 2-6)", "Readout Value": "> 500 nM"}
{"Compound": "CC(C)C[C@@H](NC(=O)[C@@H](CC(C)C)NC(=O)[C@@H](CCCCN)NC(=O)[C@@H](CCC(=O)O)NC(=O)[C@@H](Cc1ccc(C(F)(F)F)cc1)NC(=O)[C@@H](CC(N)=O)NC(=O)[C@@]1(C)CCCCCC/C=C\\CCC[C@@](C)(N)C(=O)N[C@H](C)C(=O)N[C@H](Cc2c[nH]c3cc(F)ccc23)C(=O)N[C@H](Cc2ccc(O)cc2)C(=O)N1)C(=O)N[C@H](CCCNC(=N)N)C(N)=O [^DPMI-δ (1-5)]", "Readout Value": "< 1 nM"}

Now for the compound whose Kd we want.
q: Consider the compound CC(C)C[C@H]1NC(=O)[C@@H](CCCCN)NC(=O)[C@@H](CCC(=O)O)NC(=O)[C@@H](Cc2ccc(C(F)(F)F)cc2)NC(=O)[C@@H](CC(N)=O)NC(=O)[C@]2(CCC/C=C\CCCCCC[C@](C)(C(N)=O)NC(=O)[C@@H](CC(C)C)NC1=O)CCC/C=C\CCC[C@@](C)(N)C(=O)N[C@H](C)C(=O)N[C@H](Cc1c[nH]c3cc(F)ccc13)C(=O)N[C@H](Cc1ccc(O)cc1)C(=O)N2 [^DPMI-δ (1-5-12)] and give its measured Kd.
a: < 1 nM
